All figures here come from ChEMBL document CHEMBL2346637.

- System: CCRF-CEM
- TEST PROTOCOL: Cytoprotective effect in human CEM cells assessed as reduction of diethyl maleate-induced oxidative stress measured cell viability at 5 uM incubated for 17 hrs prior to diethyl maleate challenge measured after 6 hrs by trypan blue exclusion assay relative to untreated control
- Type: functional
Rule: Activity of 90% or more gives Criterion met; anything lower gives Criterion not met.

{"COMPOUND": "CCCCCCCCCCCCCCCC1=C(C)C(=O)C(OC)=C(OC)C1=O", "CATEGORY": "Criterion met"}
{"COMPOUND": "CCCCCCCCCCC1=C(C)C(=O)C(OC)=C(OC)C1=O [DECYLUBIQUINONE]", "CATEGORY": "Criterion not met"}
{"COMPOUND": "COC1=C(OC)C(=O)C(CCCCCCCCC(C)(C)C)=C(C)C1=O", "CATEGORY": "Criterion met"}
{"COMPOUND": "COC1=C(OC)C(=O)C(CCCCCCCCCCO)=C(C)C1=O [IDEBENONE]", "CATEGORY": "Criterion not met"}
{"COMPOUND": "COC1=C(OC)C(=O)C(CCCCCCCCCCC2CCCCC2)=C(C)C1=O", "CATEGORY": "Criterion met"}

###

- TEST PROTOCOL: Effect on cellular respiration in rat RGC5 cells assessed as increase in mitochondrial oxygen consumption at 10 uM after 24 hrs by fluorescence assay relative to vehicle-treated control
- Type: functional
Listed molecules paired with reported fold change (FC)

{"MOLECULE SMILES": "COC1=C(OC)C(=O)C(CCCCCCCCCCN=[N+]=[N-])=C(C)C1=O", "fold change (FC)": 1.01}
{"MOLECULE SMILES": "COC1=C(OC)C(=O)C(CCCCCCCCCCC2CCCCC2)=C(C)C1=O", "fold change (FC)": 1.51}
{"MOLECULE SMILES": "COC1=C(OC)C(=O)C(CCCCCCCCC(C)(C)C)=C(C)C1=O", "fold change (FC)": 1.16}
{"MOLECULE SMILES": "CCCCCCCCCCC1=C(C)C(=O)C(OC)=C(OC)C1=O", "fold change (FC)": 1.08}
{"MOLECULE SMILES": "CCCCCCCCCCCCCCCC1=C(C)C(=O)C(OC)=C(OC)C1=O", "fold change (FC)": 1.52}
{"MOLECULE SMILES": "COC1=C(OC)C(=O)C(CCCCCCCCCCO)=C(C)C1=O", "fold change (FC)": 0.98}

###

- Species on record: Bos taurus
- TEST PROTOCOL: Inhibition of NADH oxidase in bovine heart submitochondrial particles at 10 uM after 5 mins by spectrophotometric analysis relative to untreated control
- Design: scale not given: the % may be the effect or the level left
Rule: activity of 60% or more gives TRUE; anything lower gives FALSE.

{"COMPOUND": "COC1=C(OC)C(=O)C(CCCCCCCCCCN=[N+]=[N-])=C(C)C1=O", "CATEGORY": "TRUE"}
{"COMPOUND": "COC1=C(OC)C(=O)C(CCCCCCCCC(C)(C)C)=C(C)C1=O", "CATEGORY": "FALSE"}
{"COMPOUND": "COC1=C(OC)C(=O)C(CCCCCCCCCCO)=C(C)C1=O [IDEBENONE]", "CATEGORY": "FALSE"}
{"COMPOUND": "COC1=C(OC)C(=O)C(CCCCCCCCCCC2CCCCC2)=C(C)C1=O", "CATEGORY": "TRUE"}

###

- System: CCRF-CEM
- TEST PROTOCOL: Antioxidant activity in human CEM cells assessed as suppression of diethyl maleate-induced ROS production at 1 uM incubated for 16 hrs prior to diethyl maleate challenge measured after 1 hr by DCFH-DA staining-based flow cytometric analysis relative to untreated control
- Assay type: functional

{"COMPOUND": "COC1=C(OC)C(=O)C(CCCCCCCCCCN=[N+]=[N-])=C(C)C1=O", "Activity": "71%"}
{"COMPOUND": "COC1=C(OC)C(=O)C(CCCCCCCCCCC2CCCCC2)=C(C)C1=O", "Activity": "100%"}
{"COMPOUND": "CCCCCCCCCCCCCCCC1=C(C)C(=O)C(OC)=C(OC)C1=O", "Activity": "100%"}
{"COMPOUND": "COC1=C(OC)C(=O)C(CCCCCCCCCCO)=C(C)C1=O [IDEBENONE]", "Activity": "45%"}
{"COMPOUND": "CCCCCCCCCCC1=C(C)C(=O)C(OC)=C(OC)C1=O [DECYLUBIQUINONE]", "Activity": "80%"}
{"COMPOUND": "COC1=C(OC)C(=O)C(CCCCCCCCC(C)(C)C)=C(C)C1=O", "Activity": "88%"}

###

- Test system: CCRF-CEM
- TEST PROTOCOL: Cytoprotective effect in human CEM cells assessed as reduction of diethyl maleate-induced oxidative stress measured cell viability at 0.5 uM incubated for 17 hrs prior to diethyl maleate challenge measured after 6 hrs by trypan blue exclusion assay relative to untreated control
- Assay type: functional
Listed compounds paired with reported Activity
OBSERVATION TYPE: Activity

{"COMPOUND": "COC1=C(OC)C(=O)C(CCCCCCCCC(C)(C)C)=C(C)C1=O", "MEASUREMENT": "43%"}
{"COMPOUND": "COC1=C(OC)C(=O)C(CCCCCCCCCCC2CCCCC2)=C(C)C1=O", "MEASUREMENT": "83%"}
{"COMPOUND": "CCCCCCCCCCCCCCCC1=C(C)C(=O)C(OC)=C(OC)C1=O", "MEASUREMENT": "87%"}
{"COMPOUND": "CCCCCCCCCCC1=C(C)C(=O)C(OC)=C(OC)C1=O [DECYLUBIQUINONE]", "MEASUREMENT": "62%"}
{"COMPOUND": "COC1=C(OC)C(=O)C(CCCCCCCCCCO)=C(C)C1=O [IDEBENONE]", "MEASUREMENT": "38%"}
{"COMPOUND": "COC1=C(OC)C(=O)C(CCCCCCCCCCN=[N+]=[N-])=C(C)C1=O", "MEASUREMENT": "21%"}

###

- Organism: Bos taurus
- TEST PROTOCOL: Inhibition of NADH oxidase in bovine heart submitochondrial particles at 5 uM after 5 mins by spectrophotometric analysis relative to untreated control
- Set-up: scale not given: the % may be the effect or the level left
Define the label as Yes when activity is strictly less than 80% and as No in all remaining cases.

{"MOLECULE SMILES": "COC1=C(OC)C(=O)C(CCCCCCCCCCO)=C(C)C1=O", "CATEGORY": "Yes"}
{"MOLECULE SMILES": "CCCCCCCCCCC1=C(C)C(=O)C(OC)=C(OC)C1=O", "CATEGORY": "No"}
{"MOLECULE SMILES": "CCCCCCCCCCCCCCCC1=C(C)C(=O)C(OC)=C(OC)C1=O", "CATEGORY": "Yes"}
{"MOLECULE SMILES": "COC1=C(OC)C(=O)C(CCCCCCCCCCN=[N+]=[N-])=C(C)C1=O", "CATEGORY": "Yes"}
{"MOLECULE SMILES": "COC1=C(OC)C(=O)C(CCCCCCCCC(C)(C)C)=C(C)C1=O", "CATEGORY": "Yes"}

###

Listed molecules paired with reported Activity
- Test system: CCRF-CEM
- TEST PROTOCOL: Antioxidant activity in human CEM cells assessed as suppression of diethyl maleate-induced ROS production at 2.5 uM incubated for 16 hrs prior to diethyl maleate challenge measured after 1 hr by DCFH-DA staining-based flow cytometric analysis relative to untreated control
- Format: functional
OBSERVATION TYPE: Activity (%)

{"MOLECULE SMILES": "COC1=C(OC)C(=O)C(CCCCCCCCCCO)=C(C)C1=O", "MEASUREMENT": 65}
{"MOLECULE SMILES": "COC1=C(OC)C(=O)C(CCCCCCCCC(C)(C)C)=C(C)C1=O", "MEASUREMENT": 100}
{"MOLECULE SMILES": "CCCCCCCCCCCCCCCC1=C(C)C(=O)C(OC)=C(OC)C1=O", "MEASUREMENT": 100}
{"MOLECULE SMILES": "CCCCCCCCCCC1=C(C)C(=O)C(OC)=C(OC)C1=O", "MEASUREMENT": 95}
{"MOLECULE SMILES": "COC1=C(OC)C(=O)C(CCCCCCCCCCN=[N+]=[N-])=C(C)C1=O", "MEASUREMENT": 87}
{"MOLECULE SMILES": "COC1=C(OC)C(=O)C(CCCCCCCCCCC2CCCCC2)=C(C)C1=O", "MEASUREMENT": 100}

###

Listed compounds paired with reported pIC50
- TEST PROTOCOL: Inhibition of NADH-ubiquinone oxidoreductase activity in bovine heart submitochondrial particles using coenzyme Q1 as substrate after 5 mins by spectrophotometric analysis
- Set-up: species or system Bos taurus
pIC50: −log10 of the molar value.
OBSERVATION TYPE: pIC50

{"COMPOUND": "COC1=C(OC)C(=O)C(CCCCCCCCCCN=[N+]=[N-])=C(C)C1=O", "OBSERVATION TYPE": "pIC50", "QUALIFYING SIGN": "<", "MEASUREMENT": 4.52}
{"COMPOUND": "COC1=C(OC)C(=O)C(CCCCCCCCCCC2CCCCC2)=C(C)C1=O", "OBSERVATION TYPE": "pIC50", "QUALIFYING SIGN": "=", "MEASUREMENT": 4.83}
{"COMPOUND": "CCCCCCCCCCCCCCCC1=C(C)C(=O)C(OC)=C(OC)C1=O", "OBSERVATION TYPE": "pIC50", "QUALIFYING SIGN": "<", "MEASUREMENT": 4.52}
{"COMPOUND": "CCCCCCCCCCC1=C(C)C(=O)C(OC)=C(OC)C1=O [DECYLUBIQUINONE]", "OBSERVATION TYPE": "pIC50", "QUALIFYING SIGN": "<", "MEASUREMENT": 4.52}
{"COMPOUND": "COC1=C(OC)C(=O)C(CCCCCCCCCCO)=C(C)C1=O [IDEBENONE]", "OBSERVATION TYPE": "pIC50", "QUALIFYING SIGN": "=", "MEASUREMENT": 5.24}
{"COMPOUND": "COC1=C(OC)C(=O)C(CCCCCCCCC(C)(C)C)=C(C)C1=O", "OBSERVATION TYPE": "pIC50", "QUALIFYING SIGN": "=", "MEASUREMENT": 4.83}
